- test_system: T1, Clostridium difficile toxin A (TcdA) (Clostridium difficile, UniProt P16154 1-2710)
- T1 construct: mature; also called full-length TcdA
- T1 sequence (P16154 whole entry): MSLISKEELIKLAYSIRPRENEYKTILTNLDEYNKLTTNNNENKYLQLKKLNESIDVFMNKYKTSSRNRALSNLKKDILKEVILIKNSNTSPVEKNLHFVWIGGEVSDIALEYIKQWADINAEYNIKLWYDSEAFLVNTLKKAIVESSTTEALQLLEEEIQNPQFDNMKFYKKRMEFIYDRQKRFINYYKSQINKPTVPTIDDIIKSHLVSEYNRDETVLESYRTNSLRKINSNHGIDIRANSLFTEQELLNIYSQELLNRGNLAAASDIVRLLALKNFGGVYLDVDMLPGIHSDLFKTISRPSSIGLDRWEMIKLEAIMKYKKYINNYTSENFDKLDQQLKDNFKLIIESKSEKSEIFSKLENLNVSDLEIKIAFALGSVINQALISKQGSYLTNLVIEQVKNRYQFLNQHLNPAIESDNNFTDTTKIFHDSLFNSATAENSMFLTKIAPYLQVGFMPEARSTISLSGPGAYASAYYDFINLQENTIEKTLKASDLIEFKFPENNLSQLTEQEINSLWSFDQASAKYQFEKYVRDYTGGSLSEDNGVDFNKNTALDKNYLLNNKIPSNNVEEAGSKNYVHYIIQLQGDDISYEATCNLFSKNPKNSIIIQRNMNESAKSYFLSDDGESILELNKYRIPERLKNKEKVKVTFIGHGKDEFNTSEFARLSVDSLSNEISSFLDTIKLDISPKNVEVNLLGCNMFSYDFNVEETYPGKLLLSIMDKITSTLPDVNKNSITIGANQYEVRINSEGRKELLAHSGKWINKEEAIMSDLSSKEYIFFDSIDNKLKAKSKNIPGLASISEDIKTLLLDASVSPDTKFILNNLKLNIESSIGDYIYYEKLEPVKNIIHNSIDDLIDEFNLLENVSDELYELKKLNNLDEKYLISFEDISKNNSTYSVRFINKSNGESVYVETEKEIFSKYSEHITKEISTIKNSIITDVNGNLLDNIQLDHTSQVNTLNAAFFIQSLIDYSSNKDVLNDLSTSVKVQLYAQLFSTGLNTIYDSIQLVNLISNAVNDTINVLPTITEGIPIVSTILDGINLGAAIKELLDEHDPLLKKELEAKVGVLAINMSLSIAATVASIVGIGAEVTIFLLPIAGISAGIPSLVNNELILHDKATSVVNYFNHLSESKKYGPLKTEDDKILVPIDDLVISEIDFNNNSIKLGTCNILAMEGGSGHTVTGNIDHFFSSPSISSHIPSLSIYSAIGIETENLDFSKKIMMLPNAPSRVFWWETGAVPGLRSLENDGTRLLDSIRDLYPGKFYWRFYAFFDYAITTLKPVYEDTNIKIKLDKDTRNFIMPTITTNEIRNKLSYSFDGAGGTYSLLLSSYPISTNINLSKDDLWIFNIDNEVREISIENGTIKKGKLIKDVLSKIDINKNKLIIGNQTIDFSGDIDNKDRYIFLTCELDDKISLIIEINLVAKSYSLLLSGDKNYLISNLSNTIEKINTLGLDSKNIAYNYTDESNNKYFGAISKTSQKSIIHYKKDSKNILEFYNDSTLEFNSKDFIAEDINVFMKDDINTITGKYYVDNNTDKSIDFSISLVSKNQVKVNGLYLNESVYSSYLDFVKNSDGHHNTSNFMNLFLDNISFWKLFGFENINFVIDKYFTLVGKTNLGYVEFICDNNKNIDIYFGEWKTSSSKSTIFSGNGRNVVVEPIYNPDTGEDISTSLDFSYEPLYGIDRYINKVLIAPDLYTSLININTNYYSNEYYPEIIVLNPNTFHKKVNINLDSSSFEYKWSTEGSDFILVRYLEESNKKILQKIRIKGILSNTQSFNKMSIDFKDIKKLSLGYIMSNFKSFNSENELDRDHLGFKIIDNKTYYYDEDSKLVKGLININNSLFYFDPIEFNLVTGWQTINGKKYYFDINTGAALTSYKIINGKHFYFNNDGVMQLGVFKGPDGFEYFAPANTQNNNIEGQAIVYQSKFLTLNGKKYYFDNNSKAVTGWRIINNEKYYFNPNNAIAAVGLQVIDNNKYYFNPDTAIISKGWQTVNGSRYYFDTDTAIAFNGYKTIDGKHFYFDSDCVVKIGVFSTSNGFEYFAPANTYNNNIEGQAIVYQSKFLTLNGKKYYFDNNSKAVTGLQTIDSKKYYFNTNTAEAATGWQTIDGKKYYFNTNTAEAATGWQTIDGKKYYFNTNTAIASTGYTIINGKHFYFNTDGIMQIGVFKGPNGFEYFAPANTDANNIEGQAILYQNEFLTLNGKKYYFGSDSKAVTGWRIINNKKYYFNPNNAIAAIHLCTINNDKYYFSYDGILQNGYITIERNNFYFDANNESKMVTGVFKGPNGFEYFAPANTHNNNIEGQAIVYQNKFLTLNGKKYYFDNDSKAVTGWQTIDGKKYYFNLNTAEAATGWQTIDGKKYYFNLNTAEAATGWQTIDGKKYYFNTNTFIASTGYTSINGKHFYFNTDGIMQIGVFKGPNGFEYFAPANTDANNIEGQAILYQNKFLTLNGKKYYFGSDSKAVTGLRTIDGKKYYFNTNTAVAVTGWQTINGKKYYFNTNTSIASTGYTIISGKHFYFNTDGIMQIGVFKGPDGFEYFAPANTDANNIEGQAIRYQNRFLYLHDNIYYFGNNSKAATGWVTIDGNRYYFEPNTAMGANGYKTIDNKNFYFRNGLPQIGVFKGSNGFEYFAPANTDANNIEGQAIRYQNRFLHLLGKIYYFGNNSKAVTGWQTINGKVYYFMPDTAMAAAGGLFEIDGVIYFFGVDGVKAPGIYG
- assay_details: SPR (Biacore 3000), VHH over immobilized TcdA, 1:1 fit
- Protocol: Before surface plasmon resonance (SPR) binding experiments, IMAC-purified VHHs were subjected to de-salting and further purification by size-exclusion chromatography (SEC). […] Monomeric VHH fractions were collected and analyzed for binding to TcdA using a Biacore 3000 SPR instrument (GE Healthcare). […] Reference-subtracted sensorgrams were analyzed with BIAevaluation software (GE Healthcare) and fit to a 1:1 binding model. […]
Criterion: Kd strictly under 6 nM. Met: yes (1). Not met: no (0).

Example entries begin here.
binder	category_label
A26.8-T103M (VHH, not shown: small tags and cut ends) VHH: QVKLEESGGGLVQAGGSLRLSCAASERTFSRYPVAWFRQAPGAEREFVAVISSTGTSTYYADSVKGRFTISRDNAKVTVYLQMNNLKREDTAVYFCAVNSQRMRLQDPNEYDYWGQGTQVTVSS	no (0)
A26.8-T56R, Q101K (VHH, not shown: small tags and cut ends) VHH: QVKLEESGGGLVQAGGSLRLSCAASERTFSRYPVAWFRQAPGAEREFVAVISSTGRSTYYADSVKGRFTISRDNAKVTVYLQMNNLKREDTAVYFCAVNSKRTRLQDPNEYDYWGQGTQVTVSS	yes (1)

Does A26.8 VHH mutant D107Y (VHH, not shown: small tags and cut ends) VHH: QVKLEESGGGLVQAGGSLRLSCAASERTFSRYPVAWFRQAPGAEREFVAVISSTGTSTYYADSVKGRFTISRDNAKVTVYLQMNNLKREDTAVYFCAVNSQRTRLQYPNEYDYWGQGTQVTVSS have Kd strictly under 6 nM?
no (0)

Does A26.8-T103K (VHH, not shown: small tags and cut ends) VHH: QVKLEESGGGLVQAGGSLRLSCAASERTFSRYPVAWFRQAPGAEREFVAVISSTGTSTYYADSVKGRFTISRDNAKVTVYLQMNNLKREDTAVYFCAVNSQRKRLQDPNEYDYWGQGTQVTVSS have Kd strictly under 6 nM?
no (0)
